system.tested: Histone deacetylase 1 (Homo sapiens)
Sequence (Q13547 whole entry): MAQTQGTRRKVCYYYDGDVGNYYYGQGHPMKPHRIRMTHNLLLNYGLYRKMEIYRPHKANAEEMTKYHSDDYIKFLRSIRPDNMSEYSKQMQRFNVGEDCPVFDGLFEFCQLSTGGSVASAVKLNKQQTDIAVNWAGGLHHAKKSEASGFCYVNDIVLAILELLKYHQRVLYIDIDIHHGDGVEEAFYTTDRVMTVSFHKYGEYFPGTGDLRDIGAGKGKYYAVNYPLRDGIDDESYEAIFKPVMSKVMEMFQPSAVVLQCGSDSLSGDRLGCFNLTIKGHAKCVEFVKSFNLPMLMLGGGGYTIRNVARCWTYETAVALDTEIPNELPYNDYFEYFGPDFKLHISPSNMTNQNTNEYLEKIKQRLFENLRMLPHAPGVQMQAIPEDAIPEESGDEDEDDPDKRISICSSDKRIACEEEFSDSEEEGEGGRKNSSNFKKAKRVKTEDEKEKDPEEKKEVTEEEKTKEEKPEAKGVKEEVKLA
assay.remarks: Inhibition of HDAC1 (unknown origin) preincubated for 90 mins
pIC50: −log10 of the molar value.
Listed compounds paired with reported pIC50
measurement.name: pIC50

>  <smiles.notation>
Nc1ccccc1NC(=O)CCCCCCC(=O)Nc1ccccc1

>  <system.tested>
Histone deacetylase 1 (Homo sapiens)

>  <result.number>
5.91

$$$$
>  <smiles.notation>
CCCNNC(=O)CCCCCCC(=O)Nc1ccccc1

>  <system.tested>
Histone deacetylase 1 (Homo sapiens)

>  <result.number>
7.38

$$$$

----------
system.tested: Histone deacetylase 7 (Homo sapiens)
Sequence (Q8WUI4 whole entry): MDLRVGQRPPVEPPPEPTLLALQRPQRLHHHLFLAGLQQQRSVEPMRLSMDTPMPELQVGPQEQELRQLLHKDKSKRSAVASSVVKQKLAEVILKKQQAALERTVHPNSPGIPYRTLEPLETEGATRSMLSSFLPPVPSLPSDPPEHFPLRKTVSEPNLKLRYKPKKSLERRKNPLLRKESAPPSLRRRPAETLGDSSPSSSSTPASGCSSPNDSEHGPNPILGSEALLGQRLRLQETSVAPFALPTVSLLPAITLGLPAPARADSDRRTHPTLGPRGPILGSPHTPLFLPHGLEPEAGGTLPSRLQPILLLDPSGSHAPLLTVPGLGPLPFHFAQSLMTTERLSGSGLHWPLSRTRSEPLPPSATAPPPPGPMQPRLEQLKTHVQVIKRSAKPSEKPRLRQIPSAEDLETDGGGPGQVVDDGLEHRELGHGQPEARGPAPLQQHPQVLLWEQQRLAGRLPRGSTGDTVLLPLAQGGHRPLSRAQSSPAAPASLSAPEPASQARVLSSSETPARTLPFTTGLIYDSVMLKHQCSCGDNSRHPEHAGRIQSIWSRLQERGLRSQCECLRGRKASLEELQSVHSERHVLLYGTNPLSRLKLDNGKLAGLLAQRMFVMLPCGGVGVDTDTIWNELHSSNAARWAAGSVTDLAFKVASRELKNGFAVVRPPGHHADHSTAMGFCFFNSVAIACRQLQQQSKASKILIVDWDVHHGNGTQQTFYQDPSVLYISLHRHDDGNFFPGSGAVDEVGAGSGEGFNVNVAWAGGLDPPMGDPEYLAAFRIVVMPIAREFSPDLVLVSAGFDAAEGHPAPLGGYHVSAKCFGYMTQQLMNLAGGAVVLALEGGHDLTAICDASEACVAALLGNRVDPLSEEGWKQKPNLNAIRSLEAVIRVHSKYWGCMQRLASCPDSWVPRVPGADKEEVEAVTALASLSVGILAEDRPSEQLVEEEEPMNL
pIC50: −log10 of the molar value.

>  <smiles.notation>
Nc1ccccc1NC(=O)CCCCCCC(=O)Nc1ccccc1

>  <pIC50>
< 5.00

$$$$

----------
system.tested: Histone deacetylase 2 (Homo sapiens)
Sequence (Q92769 whole entry): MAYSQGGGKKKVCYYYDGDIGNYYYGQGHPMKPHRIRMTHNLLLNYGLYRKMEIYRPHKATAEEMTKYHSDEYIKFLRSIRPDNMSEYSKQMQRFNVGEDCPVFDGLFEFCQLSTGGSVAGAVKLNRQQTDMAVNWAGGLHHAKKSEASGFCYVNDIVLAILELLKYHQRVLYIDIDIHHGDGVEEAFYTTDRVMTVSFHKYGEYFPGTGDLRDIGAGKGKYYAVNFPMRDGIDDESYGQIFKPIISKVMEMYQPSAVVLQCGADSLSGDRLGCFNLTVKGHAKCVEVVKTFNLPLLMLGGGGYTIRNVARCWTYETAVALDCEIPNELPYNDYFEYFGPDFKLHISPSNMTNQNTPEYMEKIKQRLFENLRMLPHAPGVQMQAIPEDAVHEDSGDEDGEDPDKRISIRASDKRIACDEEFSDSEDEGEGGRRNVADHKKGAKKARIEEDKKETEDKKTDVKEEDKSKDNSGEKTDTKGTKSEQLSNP
assay.remarks: Inhibition of HDAC2 (unknown origin) preincubated for 30 mins
pIC50: −log10 of the molar value.
# pIC50 listing for each entry below

>  <smiles.notation>
CCCNNC(=O)CCCCCCC(=O)Nc1ccccc1

>  <system.tested>
Histone deacetylase 2 (Homo sapiens)

>  <pIC50>
6.52

$$$$
>  <smiles.notation>
Nc1ccccc1NC(=O)CCCCCCC(=O)Nc1ccccc1

>  <system.tested>
Histone deacetylase 2 (Homo sapiens)

>  <pIC50>
5.93

$$$$

Hey, just so you know, these numbers are from ChEMBL document CHEMBL5126566.
